The measurements presented in this section are drawn from PubChem BioAssay (Tox21).

Assay: qHTS RealTime-Glo MT Cell Viability Assay in HEK293 cells - 24 hour (AID 1224886); note: nearly all actives have a fitted effect of over 50% in size
Conditions: RealTime-Glo luminescence; series mostly up to 76.8 µM
Inconclusive results are not listed. Active and inactive are the calls of the source. Calls come from the whole dose curve; as a rule, active = well fitted cell-killing curve with a large enough effect in the repeat runs; inconclusive = weak or mixed curves, or effect the other way; inactive = flat fitted curve, though single readings scatter.
Thanks in advance; please answer with one of these: True = active, False = inactive

| COMPOUND | CLASS_NAME |
| --- | --- |
| CCCOCCOCCO | False |
| O=C(CCCCCCCCC#CI)Oc1ccccc1 | False |
| COc1ccc(C(=O)c2cccc(O)c2)c(OC)c1 | False |
| O=C(O)c1ccc(CO)o1 | False |
| NC(=O)Cn1c(=O)cc(CCN2CCN(c3nccc4sccc34)CC2)c2ccc(F)cc21 | True |
| COC(OC)(C(=O)c1ccccc1)c1ccccc1 | False |

Name the outcome recorded for `Cc1cnc(C)c(C)n1` in the assay.
False

Name the outcome recorded for `CC(C)CCCCCCOC(=O)CCCCC(=O)OCCCCCCC(C)C` in the assay.
False

Name the outcome recorded for `COC(=O)CC(=O)C(C)(C)C` in the assay.
False

Name the outcome recorded for `Nc1ccc(Cl)cc1[N+](=O)[O-]` in the assay.
False

Name the outcome recorded for `N#C[C@@H]1C[C@@H]2C[C@@H]2N1C(=O)[C@@H](N)C12CC3CC(CC(O)(C3)C1)C2` in the assay.
False

* * *

Assay: qHTS assay to identify small molecule that activate the aryl hydrocarbon receptor (AhR) signaling pathway - cell viability counter screen (AID 743086); note: nearly all actives have a fitted effect of over 45% in size
Details: HepG2-AhR-luc viability, CellTiter-Fluor, 24 h; series mostly up to 70.3 µM
Results filed as inconclusive are left out. Activity calls are given as the source filed them. Calls follow the shape of the dose curve; as a rule, active = well fitted cell-killing curve with a large enough effect in the repeat runs; inconclusive = weak or mixed curves, or effect the other way; inactive = flat fitted curve, though single readings scatter.
Thanks in advance; please answer with one of these: 1 (yes) = active, 0 (no) = inactive

| COMPOUND | CLASS_NAME |
| --- | --- |
| Fc1c(F)c(F)c(Br)c(F)c1F | 0 (no) |
| CCC(C)(C)C1CCC(O)CC1 (centres undefined) | 0 (no) |
| CC1(C)O[C@@H]2C[C@H]3[C@@H]4CCC5=CC(=O)C=C[C@]5(C)[C@H]4[C@@H](O)C[C@]3(C)[C@]2(C(=O)CO)O1 | 0 (no) |
| CC(C)(CCl)c1ccccc1 | 0 (no) |

Name the outcome recorded for CCC(C(=O)OCCOCCN(CC)CC)c1ccccc1 (centres undefined) in the assay.
0 (no)

Name the outcome recorded for `CCC(=O)OC/C=C/c1ccccc1` in the assay.
0 (no)

Name the outcome recorded for `COc1cc2[nH]c(=O)[nH]c(=O)c2cc1OC` in the assay.
0 (no)

Name the outcome recorded for `CC#N` in the assay.
0 (no)

Name the outcome recorded for Fc1ccccc1[C@@H](F)COC1CCC(Nc2ncnc3[nH]ncc23)CC1 (some centres undefined) in the assay.
1 (yes)

Name the outcome recorded for CC(COc1ccc(C(C)(C)C)cc1)OS(=O)OCCCl (centres undefined) in the assay.
0 (no)

Name the outcome recorded for CCCCC(CC)CNCC(CC)CCCC (centres undefined) in the assay.
0 (no)

Name the outcome recorded for NCC1CCCC(CN)C1 (centres undefined) in the assay.
0 (no)

Name the outcome recorded for C/C=C(\C)C(=O)OCCC(C)CCC=C(C)C (centres undefined) in the assay.
0 (no)

Name the outcome recorded for `CCOC(=O)c1ccccc1C` in the assay.
0 (no)

* * *

Assay: qHTS assay for small molecule disruptors of the mitochondrial membrane potential - cell viability (AID 720634);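 note: human HepG2 liver cancer cells; nearly all actives have a fitted effect of over 20% in size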
Details: HepG2 viability, ATP luminescence (CellTiter-Glo), 1 h; series mostly up to 83.2 µM
Results filed as inconclusive are left out. The source made the active and inactive calls. The call rests on the fitted dose curve.
OUTCOME_MEASURE: activity change, negative = cytotoxicity

| SMILES_NOTATION | OUTCOME_MEASURE | VALUE_OBSERVED |
| --- | --- | --- |
| CO[C@@]12[C@H](COC(N)=O)C3=C(C(=O)C(C)=C(N)C3=O)N1C[C@@H]1N[C@@H]12 | activity change, negative = cytotoxicity | inactive |
| CC(C)=CC=O | activity change, negative = cytotoxicity | inactive |
| CCC(=O)Oc1ccc(/C(CC)=C(\CC)c2ccc(OC(=O)CC)cc2)cc1 | activity change, negative = cytotoxicity | inactive |

* * *

Target: Androgen receptor (Homo sapiens)
Experiment: qHTS assay to identify small molecule antagonists of the androgen receptor (AR) signaling pathway using the MDA cell line in the presence of 0.5 nM R1881 (AID 1259243); note: nearly all actives have a fitted effect of over 50% in size
Conditions: MDA-kb2 MMTV-luciferase, R1881 0.5 nM, 16 h; series mostly up to 42.5 µM
Records with an inconclusive call do not appear. Calls of active or inactive are those of the source. The call rests on the fitted dose curve; in most records, active means well fitted inhibition curve with a large enough effect in the repeat runs; inconclusive means weak or mixed curves; inactive means no such curve, though single readings can be large or run the other way.
Thanks in advance; please answer with one of these: active, inactive

| COMPOUND | CLASS_NAME |
| --- | --- |
| c1cnc2c(n1)CCCC2 | inactive |
| CC(=O)Nc1ccc(N)cc1 | inactive |
| O=C(O)c1c(O)c(-c2ccccc2)nc2ccccc12 | inactive |
| CCOCCn1c(C2CCN(CCc3ccc(C(C)(C)C(=O)O)cc3)CC2)nc2ccccc21 | inactive |
| CCCCC1C(=O)N(c2ccccc2)N(c2ccc(O)cc2)C1=O (stereo not drawn) | active |

Name the outcome recorded for `C[N+](C)(C)CCOC(N)=O` in the assay.
inactive

Name the outcome recorded for `Cn1c(=O)c2c(ncn2CC(=O)O)n(C)c1=O` in the assay.
inactive

Name the outcome recorded for `O=C(CCCCCCCCC#CI)Oc1ccccc1` in the assay.
inactive

Name the outcome recorded for `CCCc1c(OCCCOc2ccc(OCC(=O)O)cc2)ccc(C(C)=O)c1O` in the assay.
inactive

Name the outcome recorded for `Cc1ccc(Nc2nccc(N(C)c3ccc4c(C)n(C)nc4c3)n2)cc1S(N)(=O)=O` in the assay.
active

Name the outcome recorded for `COc1ccc([C@@H]2Sc3ccccc3NC(=O)[C@@H]2O)cc1` in the assay.
inactive

Name the outcome recorded for `OC(CCCN1CCCCC1)(c1ccccc1)c1ccccc1` in the assay.
inactive

Name the outcome recorded for `CCCCCCCCSCCO` in the assay.
inactive

* * *

Assay: qHTS assay to identify small molecule antagonists of the vitamin D receptor (VDR) signaling pathway - cell viability counter screen (AID 743225); note: nearly all actives have a fitted effect of over 50% in size
Conditions: VDR-bla HEK293T viability, CellTiter-Glo luminescence, 16 h; series mostly up to 61 µM
Records with an inconclusive call do not appear. Active and inactive are the calls of the source. Calls follow the shape of the dose curve; as a rule, active = well fitted cell-killing curve with a large enough effect in the repeat runs; inconclusive = weak or mixed curves, or effect the other way; inactive = no such curve, though single readings can be large or run the other way.
Thanks in advance; please answer with one of these: active, inactive

Example cases with answers are listed next.
| MOLECULE | CLASS_NAME |
| --- | --- |
| CO[C@H]1C=CO[C@@]2(C)Oc3c(C)c(O)c4c(O)c(c5c(c4c3C2=O)=NC2(CCN(CC(C)C)CC2)N=5)NC(=O)/C(C)=C\C=C/[C@H](C)[C@H](O)[C@@H](C)[C@@H](O)[C@@H](C)[C@H](OC(C)=O)[C@@H]1C | inactive |
| CCCCN(CCCC)CCCOC(=O)c1ccc(N)cc1 | inactive |
| CCOC(=O)c1ccccc1OC | inactive |
| CCOC(=O)C(C)Oc1ccc(Oc2nc3ccc(Cl)cc3o2)cc1 (configuration not stated) | inactive |
| COc1ccc([C@@H]2Sc3ccccc3NC(=O)[C@@H]2O)cc1 | inactive |
| CCCCC(=O)O[C@]1(C(=O)CO)[C@@H](C)C[C@H]2[C@@H]3CCC4=CC(=O)C=C[C@]4(C)[C@@]3(F)[C@@H](O)C[C@@]21C | inactive |
| C[Si](NC1CCCCC1)(NC1CCCCC1)NC1CCCCC1 | inactive |
| CN1CCN(CCCN2c3ccccc3Sc3ccc(S(=O)(=O)N(C)C)cc32)CC1 | active |
| CC(C)CCCCCOC(=O)CCCCC(=O)OCCCCCC(C)C | inactive |
| Cc1ccc(/C=N/n2c(-c3ccccc3)csc2=S)cc1 | inactive |

Name the outcome recorded for `C=CCOC(=O)/C=C\C(=O)OCC=C` in the assay.
inactive

Name the outcome recorded for `CCCc1c(OCCCOc2ccc(OCC(=O)O)cc2)ccc(C(C)=O)c1O` in the assay.
inactive

Name the outcome recorded for `NC(=O)N(O)[C@@H]1C=C[C@H](Oc2cccc(Oc3ccc(F)cc3)c2)C1` in the assay.
inactive

Name the outcome recorded for `O=C(/C=C/c1ccccc1)OCCCc1ccccc1` in the assay.
inactive

Name the outcome recorded for `CC#N` in the assay.
inactive

Name the outcome recorded for `Nc1c(I)cc(I)c(C(=O)N(CCC(=O)O)c2ccccc2)c1I` in the assay.
inactive

Name the outcome recorded for `CCCCCCCCCCOS(=O)(=O)O` in the assay.
inactive

Name the outcome recorded for `Cc1cc(C(=C2C=CC(=Nc3ccc(S(=O)(=O)O)cc3S(=O)(=O)O)C=C2)c2ccc(Nc3ccc(S(=O)(=O)O)cc3)cc2)ccc1N` in the assay.
inactive

Name the outcome recorded for CC(CCc1ccc2c(c1)OCO2)NN (configuration not stated) in the assay.
inactive

Name the outcome recorded for `COc1cc2ncnc(Nc3ccc(F)c(Cl)c3)c2cc1OCCCN1CCOCC1` in the assay.
inactive

Name the outcome recorded for `O=C(C(=O)c1ccccc1)c1ccccc1` in the assay.
inactive

Name the outcome recorded for `NC(=O)N(O)[C@@H]1COc2cc(OCc3ccccc3)ccc21` in the assay.
inactive
